Target: T1, scTop1 catalytically inactive (Y272F as printed) (Saccharomyces cerevisiae, UniProt P04786 1-769, Y727F)
T1 sequence: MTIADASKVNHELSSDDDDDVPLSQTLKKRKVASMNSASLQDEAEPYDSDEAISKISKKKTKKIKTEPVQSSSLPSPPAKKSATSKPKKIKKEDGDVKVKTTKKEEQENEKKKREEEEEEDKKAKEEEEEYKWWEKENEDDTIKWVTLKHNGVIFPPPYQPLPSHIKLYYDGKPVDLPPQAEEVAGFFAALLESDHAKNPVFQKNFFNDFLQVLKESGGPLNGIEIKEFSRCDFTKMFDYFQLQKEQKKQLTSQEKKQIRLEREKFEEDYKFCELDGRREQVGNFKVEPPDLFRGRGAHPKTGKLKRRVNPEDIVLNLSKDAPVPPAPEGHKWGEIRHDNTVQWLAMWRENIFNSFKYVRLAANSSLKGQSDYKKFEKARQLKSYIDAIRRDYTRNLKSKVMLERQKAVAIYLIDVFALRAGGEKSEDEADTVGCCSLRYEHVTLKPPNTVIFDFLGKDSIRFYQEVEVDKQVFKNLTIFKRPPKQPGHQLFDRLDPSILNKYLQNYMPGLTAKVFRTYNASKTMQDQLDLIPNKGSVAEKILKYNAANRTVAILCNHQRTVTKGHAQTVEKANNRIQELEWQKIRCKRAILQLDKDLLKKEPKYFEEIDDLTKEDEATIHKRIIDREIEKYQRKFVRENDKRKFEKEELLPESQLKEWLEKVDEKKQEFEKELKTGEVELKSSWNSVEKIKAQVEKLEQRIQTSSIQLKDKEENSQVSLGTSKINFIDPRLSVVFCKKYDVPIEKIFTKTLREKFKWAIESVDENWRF
Experiment: fluorescence anisotropy; 20 mM Tris pH 8, 66 mM NaCl, 1 mM DTT, 10% glycerol, 25 C, 10 min; 0.5 nM dsDNA, 0-60 nM Top1
Conditions: protein: recombinant; tags: GST removed by 3C protease; label: 5'-FAM top strand; blunt
readout-label: Kd (nM)
The answer is to be given in nM; state only the numeric part.

binder: Substrate A (dsDNA) DNA 1: AGCGTTGAAGATATGTGGCAAAACCTTTGT DNA 2: ACAAAGGTTTTGCCACATATCTTCAACGCT
unit-symbol: nM
measurement: 3.55
--
binder: Substrate C (dsDNA) DNA 1: ACTCGTCACGAGAGAGATGCCACGGTATTTCAAA DNA 2: TTTGAAATACCGTGGCATCTCTCTCGTGACGAGT
unit-symbol: nM
measurement: 9.47

Lab note: next binder to report on.
## Input Fill in the blank: the reported Kd of Substrate D (dsDNA, single ribonucleotide rG at position 16 of top strand (2 nt upstream of cleavage site), rest DNA) DNA 1: ACTCGTCACGAGAGAGATGCCACGGTATTTCAAA DNA 2: TTTGAAATACCGTGGCATCTCTCTCGTGACGAGT is ____.
## Output 8.75
